- target: T1, THAP1 THAP domain Y8C (human, UniProt Q9NVV9 1-81, Y8C)
- T1 sequence: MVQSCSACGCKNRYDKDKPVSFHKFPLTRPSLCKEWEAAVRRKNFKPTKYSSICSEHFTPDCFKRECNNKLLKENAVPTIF
- measurementProtocol: ITC
reportedProperty: pKd
Keep it numeric: pKd is minus log10 of the concentration in mol/L.

What does the record list as pKd for RRM1 16-bp DNA probe (dsDNA) DNA 1: GCTTGTGTGGGCAGCG DNA 2: CGCTGCCCACACAAGC ? 6.29
